recombinant barcode read abundance (log10) values for the sequences below.
Assay: recombinant barcode read abundance after kanamycin selection (control-corrected) (log10(CPM+1)); higher = more efficient recombination; sequences stand for … in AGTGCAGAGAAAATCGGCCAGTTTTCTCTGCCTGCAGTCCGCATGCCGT…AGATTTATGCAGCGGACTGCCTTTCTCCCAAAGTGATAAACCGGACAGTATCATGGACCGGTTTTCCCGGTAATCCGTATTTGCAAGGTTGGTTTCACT; site = the 11-nt target;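 note: IS621 recombinase and bridge RNA in Escherichia coli cells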
Please give only the number in your answer, with no unit.

Study these solved cases before continuing.
INSERT INTO measurements (query_sequence, result) VALUES
  ('AGGGTAGCTTGGGTTCTAACCTGTTGCCT (site AGGGGAGCTAG)', 0.163),
  ('GGGTTCGCTTGGGTTCTAACCTGTTGCCT (site GGGTTCGCTAG)', 1.93),
  ('GCCGTCTCTTGGGTTCTAACCTGTTGCCT (site GCCGTCTCTAG)', 0.135),
  ('TAGTCATCTTGGGTTCTAACCTGTTGCTC (site TAGACATCTGA)', 0.0065),
  ('GTCTAATCTTGGGTTCTAACCTGTTGCCT (site GTCTCATCTAG)', 0.271),
  ('TGGTACCCTTGGGTTCTAACCTGTTGCTA (site GTTACTACTCG)', 0.0129),
  ('CACGATGCTTGGGTTCTAACCTGTTGCCT (site CATGATGCTAG)', 0.351),
  ('CACCGAGCTTGGGTTCTAACCTGTTGCTA (site TTGACGACTCG)', 0.177),
  ('TAGTGTCCTTGGGTTCTAACCTGTTGCGT (site TAGTATCCTAC)', 0.309),
  ('GTAGGTCCTTGGGTTCTAACCTGTTGCCG (site TACAACACTAC)', 0.0369);

The value of recombinant barcode read abundance (log10) measured for the sequence GCGGATCCTTGGGTTCTAACCTGTTGCCT (site GCGAATCCTAG) turned out to be 0.824

Looking up TAGCATACTTGGGTTCTAACCTGTTGCCT (site TAGCATACTAG) , I found its recombinant barcode read abundance (log10) recorded as 1.37

// recombinant barcode read abundance (log10) lookup, sequence = TGTCTGTCTTGGGTTCTAACCTGTTGCTT (site TGTCTGTCTTA) , result: 0.0372

The measured recombinant barcode read abundance (log10) associated with TCTAAGTCTTGGGTTCTAACCTGTTGCCT (site TCTAAGTCTAG) reads 0.134

Please fill in: recombinant barcode read abundance (log10) reported for CGTGCGGCTTGGGTTCTAACCTGTTGCCT (site AGTGCGGCTAG) = 0.0463

Sure, the documented recombinant barcode read abundance (log10) for TTGATTGCTTGGGTTCTAACCTGTTGCCT (site TTGACTGCTAG) is 0.0306
